The measurements presented in this section are drawn from patent US12419305B2.

# Test system: Pseudomonas aeruginosa ATCC 15442
# test: BCT test (bacterial contact time), 60 s, log reduction / effect fraction; CI by Compusyn
# Assay type: cell-based
# measurement-setup: Pseudomonas aeruginosa, ATCC15442, 1 min, Dose 0.06 % w/v; BCT 60 s; in 25% EtOH
readout-kind: log reduction at 0.06 % strength

Record CC(CCO)CCc1ccccc1 (stereo not shown) : what is its log reduction at 0.06 % strength with Pseudomonas aeruginosa ATCC 15442?
5.3

Record CCCCCCC1CCC(=O)O1 (stereo not shown) : what is its log reduction at 0.06 % strength with Pseudomonas aeruginosa ATCC 15442?
2.8

Record C=C(C)[C@@H]1CC=C(CO)CC1 : what is its log reduction at 0.06 % strength with Pseudomonas aeruginosa ATCC 15442?
3.7

Record CC(C)=CCC/C(C)=C/CO : what is its log reduction at 0.06 % strength with Pseudomonas aeruginosa ATCC 15442?
5.9
